This section presents molecules with their documented viability, T/C values.
test system: 126254-015-R-J1-PDC complex spheroid growth, % test/control; test: Anticancer human tumor 126254-015-R-J1-PDC patient-derived soft tissue sarcoma cell line growth inhibition [Asc]; conditions: second compound 0.316 µM; first compound 10 µM; hits give low values;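 note: spheroids exposed to compound for seven days; 100% = DMSO vehicle control wells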

- molecule: "C=C(F)C(=O)N1CCN(c2nc(OCC3CCCN3C)nc3c2CCN(c2cccc4cccc(Cl)c24)C3)CC1CC#N (stereo not drawn) + Cc1c(S(C)(=O)=O)c(-c2cc(F)cc(N3CCN(c4ccc(NS(=O)(=O)c5ccc(NC(CCN6CCC(C(=O)OCCCP(=O)(O)O)CC6)CSc6ccccc6)c(S(=O)(=O)C(F)(F)F)c5)cc4)CC3)c2)c(-c2ccc(Cl)cc2)n1C(C)C"
  viability, T/C / %: 0.13
- molecule: "O=C(c1cc(Cc2n[nH]c(=O)c3ccccc23)ccc1F)N1CCN(C(=O)C2CC2)CC1 + CNC(C)C(=O)NC1CN(S(=O)(=O)c2cccc(S(=O)(=O)N3CCC4CCC(C(=O)NC(c5ccccc5)c5ccccc5)N4C(=O)C(NC(=O)C(C)NC)C3)c2)CCC2CCC(C(=O)NC(c3ccccc3)c3ccccc3)N2C1=O"
  viability, T/C / %: 29
- molecule: "O=C(c1cc(Cc2n[nH]c(=O)c3ccccc23)ccc1F)N1CCN(C(=O)C2CC2)CC1 + Cc1c(S(C)(=O)=O)c(-c2cc(F)cc(N3CCN(c4ccc(NS(=O)(=O)c5ccc(NC(CCN6CCC(C(=O)OCCCP(=O)(O)O)CC6)CSc6ccccc6)c(S(=O)(=O)C(F)(F)F)c5)cc4)CC3)c2)c(-c2ccc(Cl)cc2)n1C(C)C"
  viability, T/C / %: 47.8
- molecule: "C#Cc1c(F)ccc2cc(O)cc(-c3ncc4c(N5CC6CCC(C5)N6)nc(OCC56CCCN5CC(F)C6)nc4c3F)c12 (stereo not drawn) + CNC(C)C(=O)NC1CN(S(=O)(=O)c2cccc(S(=O)(=O)N3CCC4CCC(C(=O)NC(c5ccccc5)c5ccccc5)N4C(=O)C(NC(=O)C(C)NC)C3)c2)CCC2CCC(C(=O)NC(c3ccccc3)c3ccccc3)N2C1=O"
  viability, T/C / %: 48.1
- molecule: "C=CC(=O)N1CCN(c2nc(=O)n(-c3c(C)ccnc3C(C)C)c3nc(-c4c(O)cccc4F)c(F)cc23)C(C)C1 (stereo not drawn) + Cc1c(S(C)(=O)=O)c(-c2cc(F)cc(N3CCN(c4ccc(NS(=O)(=O)c5ccc(NC(CCN6CCC(C(=O)OCCCP(=O)(O)O)CC6)CSc6ccccc6)c(S(=O)(=O)C(F)(F)F)c5)cc4)CC3)c2)c(-c2ccc(Cl)cc2)n1C(C)C"
  viability, T/C / %: 84.1
- molecule: "C=C(F)C(=O)N1CCN(c2nc(OCC3CCCN3C)nc3c2CCN(c2cccc4cccc(Cl)c24)C3)CC1CC#N (stereo not drawn) + CNC(C)C(=O)NC1CN(S(=O)(=O)c2cccc(S(=O)(=O)N3CCC4CCC(C(=O)NC(c5ccccc5)c5ccccc5)N4C(=O)C(NC(=O)C(C)NC)C3)c2)CCC2CCC(C(=O)NC(c3ccccc3)c3ccccc3)N2C1=O"
  viability, T/C / %: 0.15
- molecule: "C#Cc1c(F)ccc2cc(O)cc(-c3ncc4c(N5CC6CCC(C5)N6)nc(OCC56CCCN5CC(F)C6)nc4c3F)c12 (stereo not drawn) + Cc1c(S(C)(=O)=O)c(-c2cc(F)cc(N3CCN(c4ccc(NS(=O)(=O)c5ccc(NC(CCN6CCC(C(=O)OCCCP(=O)(O)O)CC6)CSc6ccccc6)c(S(=O)(=O)C(F)(F)F)c5)cc4)CC3)c2)c(-c2ccc(Cl)cc2)n1C(C)C"
  viability, T/C / %: 54.5
- molecule: "C=CC(=O)N1CCN(c2nc(=O)n(-c3c(C)ccnc3C(C)C)c3nc(-c4c(O)cccc4F)c(F)cc23)C(C)C1 (stereo not drawn) + CNC(C)C(=O)NC1CN(S(=O)(=O)c2cccc(S(=O)(=O)N3CCC4CCC(C(=O)NC(c5ccccc5)c5ccccc5)N4C(=O)C(NC(=O)C(C)NC)C3)c2)CCC2CCC(C(=O)NC(c3ccccc3)c3ccccc3)N2C1=O"
  viability, T/C / %: 67.7

Data origin: PubChem BioAssay AID1963429
